Target: Cat L (UniProt P07711)
Assay: Cathepsin enzyme inhibition assay (fluorogenic peptide substrate Z-Val-Val-Arg-AMC), Cathepsin L
Format: biochemical, human and mouse
Details: enzyme 1 nM, substrate 20 μM, pH 6.5; read-out: CatL IC50
pIC50: −log10 of the molar value.
MEASUREMENT_LABEL: pIC50

> print(dat)
                                   compound  quantitative.result
1  COCCOc1ccc(S(=O)(=O)[C@@H]2C[C@@H](C(=O)NC3(C#N)CC3)N(c3cc(C)nn3C3CCC3)C2)c(Cl)c1 [Example 489]                 5.45
2  Cc1cc(N2C[C@H](S(=O)(=O)c3ccccc3C(F)(F)F)C[C@H]2C(=O)NC2(C#N)CC2)n(-c2ccnc3ccccc23)n1 [Example 352]                 5.14

(a) CN1CCC(C(=O)N2C[C@H](S(=O)(=O)c3ccccc3Cl)C[C@H]2C(=O)NC2(C#N)CC2)CC1 [Example 82]
(b) Cc1cc(N2C[C@H](S(=O)(=O)c3ccc(N4CCN(C(C)(C)C)CC4)cc3Cl)C[C@H]2C(=O)NC2(C#N)CC2)n(C2CCOCC2)n1 [Example 481]
(c) Cc1cc(N2C[C@H](S(=O)(=O)c3ccccc3Cl)C[C@H]2C(=O)NC2(C#N)CC2)n(C2CCOCC2)n1 [Example 478]
Q. Highest pIC50 first, then in falling order down to the smallest. Sort the labels as requested; that list is your answer.
A. b, c, a
(b: 5.89, c: 5.44, a: 5.17)
